Just for reference, paper PMC6733660 is where these values come from.

# Study System: recombinant EBV gp350 ectodomain (aa 4–863) (Epstein-Barr virus, strain  …, UniProt P03200-1)
# Sequence (P03200 4-863): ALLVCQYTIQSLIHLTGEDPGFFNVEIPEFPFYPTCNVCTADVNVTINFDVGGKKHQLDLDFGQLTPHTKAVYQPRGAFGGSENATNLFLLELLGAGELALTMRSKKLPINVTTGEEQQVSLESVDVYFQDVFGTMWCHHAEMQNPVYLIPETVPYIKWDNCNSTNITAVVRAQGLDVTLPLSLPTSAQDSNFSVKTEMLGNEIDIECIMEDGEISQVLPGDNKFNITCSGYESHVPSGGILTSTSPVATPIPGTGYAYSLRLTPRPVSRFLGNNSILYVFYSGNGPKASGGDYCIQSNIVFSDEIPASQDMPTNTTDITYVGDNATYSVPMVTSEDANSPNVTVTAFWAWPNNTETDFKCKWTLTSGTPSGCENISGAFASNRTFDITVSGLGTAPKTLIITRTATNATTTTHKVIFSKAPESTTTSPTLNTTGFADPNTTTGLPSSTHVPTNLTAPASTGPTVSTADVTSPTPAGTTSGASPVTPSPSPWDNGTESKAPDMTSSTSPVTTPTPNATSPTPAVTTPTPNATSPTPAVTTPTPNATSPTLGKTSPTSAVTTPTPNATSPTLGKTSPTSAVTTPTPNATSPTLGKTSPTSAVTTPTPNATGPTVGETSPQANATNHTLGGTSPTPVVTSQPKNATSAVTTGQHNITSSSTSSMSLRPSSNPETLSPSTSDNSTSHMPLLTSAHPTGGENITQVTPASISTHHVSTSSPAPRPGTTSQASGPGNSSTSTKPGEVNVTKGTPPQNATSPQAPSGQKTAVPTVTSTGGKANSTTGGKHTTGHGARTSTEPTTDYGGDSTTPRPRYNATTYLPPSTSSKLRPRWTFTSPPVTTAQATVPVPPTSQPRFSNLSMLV
# Protocol Text: ELISA
Endpoint: binding result

Binder	Result
HB9 (antibody, V domains shown) VH: GGLVKPGGSLKLSCAASGFTFSSYTMSWVRQTPEKRLEWVATISSGGSYIYYPDSVKGRFTISRDNAKNTLYLQMSSLKSEDTAIYYCTREDFYYGSSYGFFDVWGAGTTVTVSS VL: LSLPVSLGDQASISCRSSQSIVHSNGNTYLEWYLQKAGQSPKLLIYKVSNRFSGVPDRFGGSGSGTDFTLKISRVEAEDLGVYYCFQGSHVPYTFGGGTKLEIK	binds
